# systemName: CFTR-mediated chloride transport (Homo sapiens)
# Sequence (P13569 whole entry, looked up): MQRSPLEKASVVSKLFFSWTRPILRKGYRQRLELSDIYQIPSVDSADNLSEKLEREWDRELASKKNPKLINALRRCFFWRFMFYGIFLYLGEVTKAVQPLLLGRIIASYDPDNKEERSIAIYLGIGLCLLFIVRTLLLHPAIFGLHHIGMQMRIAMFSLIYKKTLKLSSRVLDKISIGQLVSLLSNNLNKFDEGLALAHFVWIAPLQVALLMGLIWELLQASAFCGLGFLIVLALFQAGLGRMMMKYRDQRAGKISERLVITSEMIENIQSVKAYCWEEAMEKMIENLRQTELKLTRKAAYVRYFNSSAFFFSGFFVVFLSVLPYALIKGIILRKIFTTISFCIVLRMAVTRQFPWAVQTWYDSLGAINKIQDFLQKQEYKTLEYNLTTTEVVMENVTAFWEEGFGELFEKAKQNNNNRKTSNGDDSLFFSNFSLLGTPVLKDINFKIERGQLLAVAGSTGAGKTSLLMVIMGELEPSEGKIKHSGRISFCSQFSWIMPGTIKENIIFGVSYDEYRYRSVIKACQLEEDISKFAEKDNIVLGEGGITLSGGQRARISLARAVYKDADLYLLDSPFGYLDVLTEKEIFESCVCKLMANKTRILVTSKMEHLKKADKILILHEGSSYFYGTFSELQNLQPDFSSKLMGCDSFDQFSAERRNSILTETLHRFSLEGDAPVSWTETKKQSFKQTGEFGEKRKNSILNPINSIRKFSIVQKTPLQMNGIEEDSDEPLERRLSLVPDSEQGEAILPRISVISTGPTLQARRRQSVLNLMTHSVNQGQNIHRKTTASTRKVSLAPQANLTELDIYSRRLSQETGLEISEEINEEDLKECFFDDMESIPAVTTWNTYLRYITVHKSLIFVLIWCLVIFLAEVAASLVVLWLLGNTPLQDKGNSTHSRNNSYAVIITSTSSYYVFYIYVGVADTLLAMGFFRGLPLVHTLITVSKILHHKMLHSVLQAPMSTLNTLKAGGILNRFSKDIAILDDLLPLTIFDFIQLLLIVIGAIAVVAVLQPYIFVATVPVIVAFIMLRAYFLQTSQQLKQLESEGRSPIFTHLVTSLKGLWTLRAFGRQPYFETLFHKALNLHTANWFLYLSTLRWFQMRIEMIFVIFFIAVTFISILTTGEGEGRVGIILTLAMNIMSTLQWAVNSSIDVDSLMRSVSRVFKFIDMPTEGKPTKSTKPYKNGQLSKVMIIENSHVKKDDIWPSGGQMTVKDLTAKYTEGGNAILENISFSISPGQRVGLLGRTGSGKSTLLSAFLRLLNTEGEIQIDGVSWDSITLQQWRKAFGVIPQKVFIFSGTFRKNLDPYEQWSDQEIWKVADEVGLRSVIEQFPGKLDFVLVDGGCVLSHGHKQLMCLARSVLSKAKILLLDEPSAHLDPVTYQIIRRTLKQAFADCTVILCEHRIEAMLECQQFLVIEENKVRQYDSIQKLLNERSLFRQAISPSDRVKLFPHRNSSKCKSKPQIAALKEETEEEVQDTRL
# Type: cell-based
# conditionLabel: enteroid cells incubated with test compound 18-24 hours; acute 10 μM forskolin and 300 nM Compound III; % of chloride transport with 3 μM Compound A, 3 μM Compound II and 300 nM acute Compound III triple combination control
recordedMetric: Max. Activity

C[C@@H]1CC[C@H]2CN(c3nc(-n4ccc(OCCC5(C(F)(F)F)CC5)n4)ccc3C(=O)NS(=O)(=O)c3cccc(n3)N1)C(C)(C)C2 (single isomer, unassigned) [Compound 59]: +++ (+++ is >60%)
CC1(C)C[C@@H]2CCCNc3cccc(n3)S(=O)(=O)NC(=O)c3ccc(N4CC[C@H](CCC5C6(CC6)C56CC6)C4=O)nc3N1C2 (single isomer, unassigned) [Compound 178]: +++ (+++ is >60%)
CC1(C)C[C@@H]2CCCNc3cccc(n3)S(=O)(=O)NC(=O)c3ccc(N4CC[C@H](OCC56CC7CC(CC(C7)C5)C6)C4=O)nc3N1C2 (single isomer, unassigned) [Compound 245]: +++ (+++ is >60%)
CC1(C)CC2CCCCn3ccc(n3)S(=O)(=O)NC(=O)c3ccc(-n4ccc(OCCC5(C(F)(F)F)CC5)n4)nc3N1C2 (centres unmarked) [Compound 39]: +++ (+++ is >60%)

====

Please respond with reported EC50 for every item in the list.
# systemName: CFTR-mediated chloride transport (Homo sapiens)
# conditionLabel: enteroid cells incubated with test compound 18-24 hours; acute 10 μM forskolin and 300 nM Compound III

Look at this compound and give its reported EC50. CC1(C)C[C@@H]2CCCNc3cccc(n3)S(=O)(=O)NC(=O)c3ccc(-n4ccc(OCC(O)C5C6(CC6)C56CC6)n4)nc3N1C2 (some centres unmarked) < 1000 nM

Same for `CC1(C)C[C@@H]2CCCNc3cccc(n3)S(=O)(=O)NC(=O)c3ccc(N4CCN(CCC(C)(C)C(F)(F)F)C4=O)nc3N1C2` < 1000 nM

Same for CC1(C)C[C@@H]2CN1c1nc(-n3ccc(OCCC4C5(CC5)C45CC5)n3)ccc1C(=O)NS(=O)(=O)c1cccc(n1)NCC(F)(F)C2 (single isomer, unassigned) [Compound 304] < 1000 nM

Same for CC1(C)C[C@H]2CCCCNc3ccc(cn3)S(=O)(=O)NC(=O)c3ccc(-n4ccc(OCCC5(C(F)(F)F)CC5)n4)nc3N1C2 (single isomer, unassigned) [Compound 68] < 1000 nM

Same for CC(C)(C)COc1ccn(-c2ccc3c(n2)N2C[C@H](CCNc4cccc(n4)S(=O)(=O)NC3=O)CC2(C)C)n1 (single isomer, unassigned) [Compound 2] 1000 to 3000 nM

====

# systemName: CFTR-mediated chloride transport (Homo sapiens)
# Assay type: cell-based
# conditionLabel: enteroid cells incubated with test compound 18-24 hours; acute 10 μM forskolin and 300 nM Compound III; % of chloride transport with 3 μM Compound A, 3 μM Compound II and 300 nM acute Compound III triple combination control
recordedMetric: Max. Activity

Example entries begin here.
Cc1c2cnn1CCCC1CN(c3nc(-n4ccc(OCC(C)(C)C(F)(F)F)n4)ccc3C(=O)NS2(=O)=O)C(C)(C)C1 (single isomer, unassigned) [Compound 285]: + (+ is <30%)
CC1(C)CC2CCn3ccc(n3)S(=O)(=O)NC(=O)c3ccc(-n4ccc(OCCCC5(C(F)(F)F)CC5)n4)nc3N1C2 (centres unmarked) [Compound 273]: + (+ is <30%)
Cc1ccc2nc1OCCC[C@@H]1CN(c3nc(-n4ccc(OCCC5(C(F)(F)F)CC5)n4)ccc3C(=O)NS2(=O)=O)C(C)(C)C1 [Compound 109]: ++ (++ is 30-60%)
CC1(C)C[C@H]2CCCn3ccc(n3)S(=O)(=O)NC(=O)c3ccc(-n4ccc(OCCCC5(C(F)(F)F)CC5)n4)nc3N1C2 (single isomer, unassigned) [Compound 165]: + (+ is <30%)
CC1(C)CC[C@H]2CCCNc3cccc(n3)S(=O)(=O)NC(=O)c3ccc(-n4ccc(OCCC(C5CC5)C5CC5)n4)nc3N21 (single isomer, unassigned) [Compound 136]: +++ (+++ is >60%)
CC1(C)C[C@@H]2CCCNc3cccc(n3)S(=O)(=O)NC(=O)c3ccc(N4CCN(CCC56CC7CC(CC(C7)C5)C6)C4=O)nc3N1C2 [Compound 228]: ++ (++ is 30-60%)
CC1(C)CC2CCCCCc3ccc(nc3)S(=O)(=O)NC(=O)c3ccc(-n4ccc(OCCC5(C(F)(F)F)CC5)n4)nc3N1C2 (centres unmarked) [Compound 143]: + (+ is <30%)
C[C@@H]1CC[C@H]2CN(c3nc(N4CCN(CCC(C)(C)C)C4=O)ccc3C(=O)NS(=O)(=O)c3cccc(n3)N1)C(C)(C)C2 (single isomer, unassigned) [Compound 215]: + (+ is <30%)
CC1(C)C[C@@H]2CN1c1nc(-n3ccc(OCCC4C5(CC5)C45CC5)n3)ccc1C(=O)NS(=O)(=O)c1cccc(n1)NCC(F)(F)C2 (single isomer, unassigned) [Compound 305]: + (+ is <30%)
CC1(C)C[C@H]2CCCn3ccc(n3)S(=O)(=O)NC(=O)c3ccc(N4CC[C@H](OCCC5(C(F)(F)F)CC5)C4=O)nc3N1C2 (single isomer, unassigned) [Compound 192]: +++ (+++ is >60%)

Pending compound:
Look at this compound and give its reported Max. Activity. CC1(C)C[C@@H]2CCCNc3cccc(n3)S(=O)(=O)NC(=O)c3ccc(-n4ccc(O)n4)nc3N1C2 [Compound 256] ++ (++ is 30-60%)
